Values from patent US8846719B2

Molecular target: human GABA A receptor α5β3γ2 (Homo sapiens (Human), UniProt P18507+P31644)
Test: [3H]flumazenil competition binding assay, human GABA A α5β3γ2 receptors expressed in HEK293 cells
Conditions: human receptor; displacement of [3H]flumazenil (0.5 nM); means of two determinations; read-out: hKi GABAAa5
MEASURE: Ki (nM)
The figure you give is taken to be in nM; do not add the unit.

Some solved cases for reference:
COMPOUND	QUANTITY_UNIT	Ki
Cc1onc(-c2ccccc2)c1COc1ccc(C(=O)NC(C)CO)cn1 (stereo not drawn)	nM	1
Cc1onc(-c2ccccc2)c1COc1ccc(C(=O)Nc2ccn(C)n2)cn1	nM	5.1
Cc1onc(-c2ccccc2)c1COc1ccc(C(=O)NCC(C)(C)CO)cn1	nM	7.7
CCNC(=O)c1ccc(OCc2c(-c3ccc(F)cc3)noc2C(F)(F)F)nc1	nM	33.3
Cc1onc(-c2ccc(Cl)cc2)c1COc1ccc(C(=O)NCC(F)(F)F)cn1	nM	2.1

Next item in the queue.
Look up Ki: Cc1onc(-c2cc(F)ccc2F)c1COc1ccc(C(=O)NC(C)C)cn1
27.3

###

# maps each entry to its pKi
Target: human GABA A receptor α5β3γ2 (Homo sapiens (Human), UniProt P18507+P31644)
Assay: [3H]flumazenil competition binding assay, human GABA A α5β3γ2 receptors expressed in HEK293 cells
Settings: human receptor; displacement of [3H]flumazenil (0.5 nM); means of two determinations; read-out: hKi GABAAa5
Scale for pKi: -log10 of concentration given in mol/L; no unit attached.

Reference set, count: 8
COMPOUND	pKi
Cc1onc(-c2cccc(Cl)c2)c1COc1ccc(C(=O)N2CCS(=O)(=O)CC2)cn1	7.71
Cc1onc(-c2ccccn2)c1COc1ccc(C(=O)O)cn1	7.65
COCCNC(=O)c1ccc(OCc2conc2-c2ccc(F)cc2)nc1	7.39
Cc1onc(-c2ccc(Cl)cc2)c1COc1ccc(C(=O)N2CCS(=O)(=O)CC2)cn1	8.54
Cc1onc(-c2ccc(F)cc2)c1COc1ccc(C(=O)NC2CC2)cn1	8.96
Cc1onc(-c2ccc(F)c(F)c2)c1COc1ccc(C(=O)NCC(C)(C)O)cn1	8.17
Cc1nc(OCc2c(-c3ccccc3)noc2C)c(Br)cc1C(=O)NC1CCOCC1	7.33
Cc1onc(-c2ccc(F)cc2)c1COc1ccc(C(=O)NCC2CC2)cn1	8.82

Pending compound:
What does the data say about its pKi? Entry: Cc1onc(-c2ccc(Cl)cn2)c1COc1ccc(C(=O)NC(C)C)cn1
9.52

###

Target: human GABA A receptor α5β3γ2 (Homo sapiens (Human), UniProt P18507+P31644)
Assay: [3H]flumazenil competition binding assay, human GABA A α5β3γ2 receptors expressed in HEK293 cells
Conditions: human receptor; displacement of [3H]flumazenil (0.5 nM); means of two determinations; read-out: hKi GABAAa5
List of pKi values.
Note on units: pKi is unitless, being -log10 of a concentration expressed in mol/L.

COC(=O)C(=O)Nc1ccc(OCc2c(-c3ccccc3)noc2C)nc1 8.14
Cc1onc(-c2cccc(F)c2)c1CNc1ccc(C(=O)NC2CCOCC2)cn1 7.83
Cc1onc(-c2cccc(F)c2)c1CNc1ccc(C(=O)NC(C)C)cn1 7.81

// pKi lookup, key: Cc1onc(-c2ccccn2)c1COc1ccc(C(=O)N2CCSCC2)cn1
8.17

What does the data say about its pKi? Entry: Cc1ccc(-c2noc(C)c2COc2ccc(C(=O)NC(C)C)cn2)cc1
9.00

GET /values?readout=pKi&item= Cc1onc(-c2ccc(F)cc2)c1CNc1ccc(C(=O)NCC(F)(F)F)cn1
8.23
